Listed below: kinase still bound, per cent of control values for each entry.
# system: EPHA4 (human)
# experiment-description: KINOMEscan competition binding
# condition-parameters: compound 10.0 µM

- structure: "CCCS(=O)(=O)Nc1ccc(F)c(C(=O)c2c[nH]c3ncc(-c4ccc(Cl)cc4)cc23)c1F"
  kinase still bound, per cent of control, %: 100
- structure: "COc1cc(C(=O)NC2CCN(C)CC2)ccc1Nc1ncc2c(n1)N(C1CCCC1)CCC(=O)N2C(C)C"
  kinase still bound, per cent of control, %: 100
- structure: "C[C@@H](Oc1cc(-n2cnc3ccc(CN4CCN(C)CC4)cc32)sc1C(N)=O)c1ccccc1C(F)(F)F"
  kinase still bound, per cent of control, %: 100
- structure: "C=CC(=O)Nc1cc(NC(=O)c2ccc(C)c(NC(=O)c3ccno3)c2)cc(C(F)(F)F)c1"
  kinase still bound, per cent of control, %: 48
- structure: "O=C(NOC[C@H](O)CO)c1ccc(F)c(F)c1Nc1ccc(I)cc1F"
  kinase still bound, per cent of control, %: 100
- structure: "CCC(=O)N1CCN(c2ccc(-n3c(=O)ccc4cnc5ccc(-c6cnc7ccccc7c6)cc5c43)cc2C(F)(F)F)CC1"
  kinase still bound, per cent of control, %: 90
- structure: "CC[C@@H]1C(=O)N(C)c2cnc(Nc3ccc(C(=O)NC4CCN(C)CC4)cc3OC)nc2N1C1CCCC1"
  kinase still bound, per cent of control, %: 100
- structure: "Cn1c(=O)n(-c2ccc(C(C)(C)C#N)cc2)c2c3cc(-c4cnc5ccccc5c4)ccc3ncc21"
  kinase still bound, per cent of control, %: 100
- structure: "Cc1ccc2nc(NCCN)c3ncc(C)n3c2c1"
  kinase still bound, per cent of control, %: 100

----------
# system: DDR2 (human) (UniProt Q16832)
# Sequence (Q16832 whole entry, looked up): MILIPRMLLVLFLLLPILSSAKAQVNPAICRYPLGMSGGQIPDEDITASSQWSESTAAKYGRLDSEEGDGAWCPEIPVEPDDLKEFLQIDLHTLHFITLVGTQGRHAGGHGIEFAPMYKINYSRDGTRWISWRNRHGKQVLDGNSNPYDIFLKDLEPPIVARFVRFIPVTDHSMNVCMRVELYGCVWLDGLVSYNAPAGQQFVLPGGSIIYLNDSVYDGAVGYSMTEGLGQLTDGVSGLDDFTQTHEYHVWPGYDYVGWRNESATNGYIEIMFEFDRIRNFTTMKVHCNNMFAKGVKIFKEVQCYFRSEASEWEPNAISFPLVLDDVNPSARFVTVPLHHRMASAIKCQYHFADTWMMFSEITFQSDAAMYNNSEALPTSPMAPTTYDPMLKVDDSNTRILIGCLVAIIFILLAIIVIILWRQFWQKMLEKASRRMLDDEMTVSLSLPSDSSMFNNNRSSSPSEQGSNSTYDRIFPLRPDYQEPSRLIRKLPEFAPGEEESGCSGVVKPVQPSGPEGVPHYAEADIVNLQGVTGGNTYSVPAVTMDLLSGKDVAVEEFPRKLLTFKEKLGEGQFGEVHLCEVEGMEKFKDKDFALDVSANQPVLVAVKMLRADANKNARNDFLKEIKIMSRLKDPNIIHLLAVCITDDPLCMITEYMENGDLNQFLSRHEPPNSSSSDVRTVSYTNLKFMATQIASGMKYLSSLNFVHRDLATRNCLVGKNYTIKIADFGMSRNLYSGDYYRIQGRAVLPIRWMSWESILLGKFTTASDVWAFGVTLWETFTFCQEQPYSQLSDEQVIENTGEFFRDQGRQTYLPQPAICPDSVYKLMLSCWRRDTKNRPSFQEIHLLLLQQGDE
# experiment-description: KINOMEscan competition binding
# condition-parameters: compound 10.0 µM
Listed below: kinase still bound, per cent of control values for each entry.

- structure: "C[C@@H](Oc1cc(-n2cnc3ccc(CN4CCN(C)CC4)cc32)sc1C(N)=O)c1ccccc1C(F)(F)F"
  kinase still bound, per cent of control / %: 77
- structure: "O=C(NC1CC1)c1cccc(-c2ccc3c(NC(=O)C4CC4)n[nH]c3c2)c1"
  kinase still bound, per cent of control / %: 90
- structure: "Cc1cc([C@@H](C)Nc2ccccc2C(=O)O)c2nc(N3CCOCC3)cc(=O)n2c1"
  kinase still bound, per cent of control / %: 83
- structure: "Cc1ccc(NC(=O)c2cccc(C(C)(C)C#N)c2)cc1Nc1ccc2ncn(C)c(=O)c2c1"
  kinase still bound, per cent of control / %: 21
- structure: "O=C1Nc2ccc(I)cc2/C1=C/c1cc(Br)c(O)c(Br)c1"
  kinase still bound, per cent of control / %: 73
- structure: "CN(C)C/C=C/C(=O)Nc1cccc(Nc2ncc3c(n2)N(C)c2ccccc2C(=O)N3C)c1"
  kinase still bound, per cent of control / %: 11
- structure: "COc1cc(C(=O)NC2CCN(C)CC2)ccc1Nc1ncc2c(n1)N(C1CCCC1)CCC(=O)N2C(C)C"
  kinase still bound, per cent of control / %: 100
- structure: "N#Cc1c(NC(=O)c2cccc3ccccc23)sc2c1CCCC2"
  kinase still bound, per cent of control / %: 100
- structure: "Cc1ccc(C(=O)Nc2cccc(C(F)(F)F)c2)cc1Nc1cncc(C(N)=O)c1"
  kinase still bound, per cent of control / %: 0

----------
# system: ERN1 (human) (UniProt O75460)
# Sequence (O75460 whole entry, looked up): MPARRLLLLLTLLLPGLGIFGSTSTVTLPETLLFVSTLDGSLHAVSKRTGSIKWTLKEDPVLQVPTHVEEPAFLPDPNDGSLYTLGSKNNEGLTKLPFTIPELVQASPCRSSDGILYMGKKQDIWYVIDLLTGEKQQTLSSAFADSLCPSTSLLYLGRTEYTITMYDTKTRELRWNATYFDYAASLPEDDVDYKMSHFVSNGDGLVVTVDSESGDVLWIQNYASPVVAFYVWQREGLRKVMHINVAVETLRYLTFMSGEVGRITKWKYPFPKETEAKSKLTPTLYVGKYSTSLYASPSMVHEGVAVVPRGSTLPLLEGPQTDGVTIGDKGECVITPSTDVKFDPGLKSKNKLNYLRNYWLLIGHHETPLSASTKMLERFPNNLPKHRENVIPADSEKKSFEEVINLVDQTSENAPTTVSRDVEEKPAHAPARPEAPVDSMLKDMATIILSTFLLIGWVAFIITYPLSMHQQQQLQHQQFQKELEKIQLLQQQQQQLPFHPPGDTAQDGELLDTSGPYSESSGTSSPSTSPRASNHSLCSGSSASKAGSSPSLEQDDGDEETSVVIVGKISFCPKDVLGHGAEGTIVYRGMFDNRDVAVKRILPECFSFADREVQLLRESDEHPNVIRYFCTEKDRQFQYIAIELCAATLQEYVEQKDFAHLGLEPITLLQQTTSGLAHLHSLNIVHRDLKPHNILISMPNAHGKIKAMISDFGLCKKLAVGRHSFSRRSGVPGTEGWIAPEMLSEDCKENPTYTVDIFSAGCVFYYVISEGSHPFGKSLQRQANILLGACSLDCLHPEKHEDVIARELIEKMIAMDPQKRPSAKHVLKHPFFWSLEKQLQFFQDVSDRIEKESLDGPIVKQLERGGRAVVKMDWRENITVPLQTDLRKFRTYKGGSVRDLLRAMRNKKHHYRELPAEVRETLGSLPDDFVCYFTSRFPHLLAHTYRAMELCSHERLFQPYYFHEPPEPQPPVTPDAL
# experiment-description: KINOMEscan competition binding
# condition-parameters: compound 10.0 µM
Lab note: cut-off is 90%. Strictly less in kinase still bound, per cent of control is 1.0. Exactly 90% or more is 0.0.

- structure: "CCCS(=O)(=O)Nc1ccc(F)c(C(=O)c2c[nH]c3ncc(-c4ccc(Cl)cc4)cc23)c1F"
  category: 1.0
- structure: "C=CC(=O)Nc1cccc(Nc2nc(N[C@H]3CC[C@H](N(C)C)CC3)nc3c2ncn3C(C)C)c1"
  category: 0.0
- structure: "O=C(NOC[C@H](O)CO)c1ccc(F)c(F)c1Nc1ccc(I)cc1F"
  category: 0.0
- structure: "O=C(O)c1ccc(Nc2ncc3c(n2)-c2ccc(Cl)cc2C(c2c(F)cccc2F)=NC3)cc1"
  category: 0.0
- structure: "CCN1CCN(Cc2ccc(Nc3ncc4c(n3)N(C)c3ccccc3C(=O)N4C)cc2C(F)(F)F)CC1"
  category: 0.0
- structure: "C[C@@H](Oc1cc(-n2cnc3ccc(CN4CCN(C)CC4)cc32)sc1C(N)=O)c1ccccc1C(F)(F)F"
  category: 1.0
- structure: "O=C1Nc2ccc(I)cc2/C1=C/c1cc(Br)c(O)c(Br)c1"
  category: 1.0
- structure: "OCCCNc1cc(-c2ccnc(Nc3cccc(Cl)c3)n2)ccn1"
  category: 0.0

----------
# system: ACVR1B (human)
# experiment-description: KINOMEscan competition binding
# condition-parameters: compound 10.0 µM
Listed below: kinase still bound, per cent of control values for each entry.
result-type: kinase still bound, per cent of control (%)

- structure: "Cc1ccc2nc(NCCN)c3ncc(C)n3c2c1"
  system: "ACVR1B (human)"
  result-type: "kinase still bound, per cent of control"
  recorded-result: 97
- structure: "C=CC(=O)Nc1cccc(Oc2nc(Nc3ccc(N4CCN(C)CC4)cc3OC)ncc2Cl)c1"
  system: "ACVR1B (human)"
  result-type: "kinase still bound, per cent of control"
  recorded-result: 100
- structure: "COc1cc(N2CCN(C)CC2)ccc1Nc1nc(N)c(C(=O)c2c(Cl)cccc2Cl)s1"
  system: "ACVR1B (human)"
  result-type: "kinase still bound, per cent of control"
  recorded-result: 100
- structure: "CC[C@@H]1C(=O)N(C)c2cnc(Nc3ccc(C(=O)NC4CCN(C)CC4)cc3OC)nc2N1C1CCCC1"
  system: "ACVR1B (human)"
  result-type: "kinase still bound, per cent of control"
  recorded-result: 100
- structure: "Nc1ccc(-c2ccc3ncc4ccc(=O)n(-c5cccc(C(F)(F)F)c5)c4c3c2)cn1"
  system: "ACVR1B (human)"
  result-type: "kinase still bound, per cent of control"
  recorded-result: 96
- structure: "Cc1ccc(NC(=O)c2cccc(C(C)(C)C#N)c2)cc1Nc1ccc2ncn(C)c(=O)c2c1"
  system: "ACVR1B (human)"
  result-type: "kinase still bound, per cent of control"
  recorded-result: 97
- structure: "Cc1cc([C@@H](C)Nc2ccccc2C(=O)O)c2nc(N3CCOCC3)cc(=O)n2c1"
  system: "ACVR1B (human)"
  result-type: "kinase still bound, per cent of control"
  recorded-result: 93
- structure: "C=CC(=O)Nc1cc(NC(=O)c2ccc(C)c(NC(=O)c3ccno3)c2)cc(C(F)(F)F)c1"
  system: "ACVR1B (human)"
  result-type: "kinase still bound, per cent of control"
  recorded-result: 100
- structure: "OCCCNc1cc(-c2ccnc(Nc3cccc(Cl)c3)n2)ccn1"
  system: "ACVR1B (human)"
  result-type: "kinase still bound, per cent of control"
  recorded-result: 100
- structure: "COc1cc(C(=O)NC2CCN(C)CC2)ccc1Nc1ncc2c(n1)N(C1CCCC1)CCC(=O)N2C(C)C"
  system: "ACVR1B (human)"
  result-type: "kinase still bound, per cent of control"
  recorded-result: 100
- structure: "O=C(O)c1ccc(Nc2ncc3c(n2)-c2ccc(Cl)cc2C(c2c(F)cccc2F)=NC3)cc1"
  system: "ACVR1B (human)"
  result-type: "kinase still bound, per cent of control"
  recorded-result: 94
- structure: "O=C(NOC[C@H](O)CO)c1ccc(F)c(F)c1Nc1ccc(I)cc1F"
  system: "ACVR1B (human)"
  result-type: "kinase still bound, per cent of control"
  recorded-result: 100
- structure: "Cn1c(=O)n(-c2ccc(C(C)(C)C#N)cc2)c2c3cc(-c4cnc5ccccc5c4)ccc3ncc21"
  system: "ACVR1B (human)"
  result-type: "kinase still bound, per cent of control"
  recorded-result: 100
- structure: "CCC(=O)N1CCN(c2ccc(-n3c(=O)ccc4cnc5ccc(-c6cnc7ccccc7c6)cc5c43)cc2C(F)(F)F)CC1"
  system: "ACVR1B (human)"
  result-type: "kinase still bound, per cent of control"
  recorded-result: 45
- structure: "CN(C)C/C=C/C(=O)Nc1cccc(Nc2ncc3c(n2)N(C)c2ccccc2C(=O)N3C)c1"
  system: "ACVR1B (human)"
  result-type: "kinase still bound, per cent of control"
  recorded-result: 53
- structure: "C=CC(=O)Nc1cccc(Nc2nc(N[C@H]3CC[C@H](N(C)C)CC3)nc3c2ncn3C(C)C)c1"
  system: "ACVR1B (human)"
  result-type: "kinase still bound, per cent of control"
  recorded-result: 87

----------
# system: DCLK3 (human) (UniProt Q9C098)
# Sequence (Q9C098 whole entry, looked up): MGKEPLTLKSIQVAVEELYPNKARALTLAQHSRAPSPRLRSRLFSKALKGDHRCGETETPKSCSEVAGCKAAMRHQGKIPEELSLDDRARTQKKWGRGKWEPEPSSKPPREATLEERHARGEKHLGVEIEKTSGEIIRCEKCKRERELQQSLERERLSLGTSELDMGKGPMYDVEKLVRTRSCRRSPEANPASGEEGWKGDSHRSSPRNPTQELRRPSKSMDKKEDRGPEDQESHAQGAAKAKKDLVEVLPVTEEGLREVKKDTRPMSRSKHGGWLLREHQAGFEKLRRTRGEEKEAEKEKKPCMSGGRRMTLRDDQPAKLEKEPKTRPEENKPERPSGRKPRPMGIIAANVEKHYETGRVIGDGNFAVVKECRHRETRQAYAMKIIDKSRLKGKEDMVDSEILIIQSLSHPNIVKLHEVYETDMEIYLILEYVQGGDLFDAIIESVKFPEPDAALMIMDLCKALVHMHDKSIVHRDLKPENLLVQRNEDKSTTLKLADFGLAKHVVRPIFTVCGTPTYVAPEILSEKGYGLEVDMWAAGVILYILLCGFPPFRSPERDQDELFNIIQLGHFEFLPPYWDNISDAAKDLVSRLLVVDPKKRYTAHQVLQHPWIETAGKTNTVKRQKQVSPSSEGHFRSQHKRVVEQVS
# experiment-description: KINOMEscan competition binding
# condition-parameters: compound 10.0 µM

- structure: "Cc1ccc(C(=O)Nc2cccc(C(F)(F)F)c2)cc1Nc1cncc(C(N)=O)c1"
  kinase still bound, per cent of control: "100%"
- structure: "CC[C@@H]1C(=O)N(C)c2cnc(Nc3ccc(C(=O)NC4CCN(C)CC4)cc3OC)nc2N1C1CCCC1"
  kinase still bound, per cent of control: "100%"
- structure: "OCCCNc1cc(-c2ccnc(Nc3cccc(Cl)c3)n2)ccn1"
  kinase still bound, per cent of control: "100%"
- structure: "O=C1Nc2ccc(I)cc2/C1=C/c1cc(Br)c(O)c(Br)c1"
  kinase still bound, per cent of control: "100%"
- structure: "Cn1c(=O)n(-c2ccc(C(C)(C)C#N)cc2)c2c3cc(-c4cnc5ccccc5c4)ccc3ncc21"
  kinase still bound, per cent of control: "100%"
- structure: "C[C@@H](Oc1cc(-n2cnc3ccc(CN4CCN(C)CC4)cc32)sc1C(N)=O)c1ccccc1C(F)(F)F"
  kinase still bound, per cent of control: "72%"
- structure: "O=C(NC1CC1)c1cccc(-c2ccc3c(NC(=O)C4CC4)n[nH]c3c2)c1"
  kinase still bound, per cent of control: "100%"
- structure: "Cc1cc([C@@H](C)Nc2ccccc2C(=O)O)c2nc(N3CCOCC3)cc(=O)n2c1"
  kinase still bound, per cent of control: "85%"
- structure: "COc1cc(C(=O)NC2CCN(C)CC2)ccc1Nc1ncc2c(n1)N(C1CCCC1)CCC(=O)N2C(C)C"
  kinase still bound, per cent of control: "100%"
- structure: "COc1cc(N2CCN(C)CC2)ccc1Nc1nc(N)c(C(=O)c2c(Cl)cccc2Cl)s1"
  kinase still bound, per cent of control: "14%"
- structure: "O=C(NOC[C@H](O)CO)c1ccc(F)c(F)c1Nc1ccc(I)cc1F"
  kinase still bound, per cent of control: "100%"
- structure: "CCC(=O)N1CCN(c2ccc(-n3c(=O)ccc4cnc5ccc(-c6cnc7ccccc7c6)cc5c43)cc2C(F)(F)F)CC1"
  kinase still bound, per cent of control: "97%"
- structure: "C=CC(=O)Nc1cccc(Nc2nc(N[C@H]3CC[C@H](N(C)C)CC3)nc3c2ncn3C(C)C)c1"
  kinase still bound, per cent of control: "86%"
- structure: "Nc1ccc(-c2ccc3ncc4ccc(=O)n(-c5cccc(C(F)(F)F)c5)c4c3c2)cn1"
  kinase still bound, per cent of control: "100%"
- structure: "Cc1ccc(NC(=O)c2cccc(C(C)(C)C#N)c2)cc1Nc1ccc2ncn(C)c(=O)c2c1"
  kinase still bound, per cent of control: "100%"
- structure: "Cc1ccc2nc(NCCN)c3ncc(C)n3c2c1"
  kinase still bound, per cent of control: "76%"
